test.method.notes: Cmax in mouse at 10 mg/kg, po
Type: ADME, organism-based
Set-up: dose 10 mg/kg, route oral
measurement.parameters: in vivo
endpoint: Cmax (µM)

smiles.notation: CNc1cc(Nc2cccn(-c3ccccn3)c2=O)nn2c(C(=O)N[C@@H]3C[C@@H]3F)cnc12
assay.value: 15

###

tested.target: Non-receptor tyrosine-protein kinase TYK2 (Homo sapiens)
Sequence (P29597 whole entry, the tested form may be a part): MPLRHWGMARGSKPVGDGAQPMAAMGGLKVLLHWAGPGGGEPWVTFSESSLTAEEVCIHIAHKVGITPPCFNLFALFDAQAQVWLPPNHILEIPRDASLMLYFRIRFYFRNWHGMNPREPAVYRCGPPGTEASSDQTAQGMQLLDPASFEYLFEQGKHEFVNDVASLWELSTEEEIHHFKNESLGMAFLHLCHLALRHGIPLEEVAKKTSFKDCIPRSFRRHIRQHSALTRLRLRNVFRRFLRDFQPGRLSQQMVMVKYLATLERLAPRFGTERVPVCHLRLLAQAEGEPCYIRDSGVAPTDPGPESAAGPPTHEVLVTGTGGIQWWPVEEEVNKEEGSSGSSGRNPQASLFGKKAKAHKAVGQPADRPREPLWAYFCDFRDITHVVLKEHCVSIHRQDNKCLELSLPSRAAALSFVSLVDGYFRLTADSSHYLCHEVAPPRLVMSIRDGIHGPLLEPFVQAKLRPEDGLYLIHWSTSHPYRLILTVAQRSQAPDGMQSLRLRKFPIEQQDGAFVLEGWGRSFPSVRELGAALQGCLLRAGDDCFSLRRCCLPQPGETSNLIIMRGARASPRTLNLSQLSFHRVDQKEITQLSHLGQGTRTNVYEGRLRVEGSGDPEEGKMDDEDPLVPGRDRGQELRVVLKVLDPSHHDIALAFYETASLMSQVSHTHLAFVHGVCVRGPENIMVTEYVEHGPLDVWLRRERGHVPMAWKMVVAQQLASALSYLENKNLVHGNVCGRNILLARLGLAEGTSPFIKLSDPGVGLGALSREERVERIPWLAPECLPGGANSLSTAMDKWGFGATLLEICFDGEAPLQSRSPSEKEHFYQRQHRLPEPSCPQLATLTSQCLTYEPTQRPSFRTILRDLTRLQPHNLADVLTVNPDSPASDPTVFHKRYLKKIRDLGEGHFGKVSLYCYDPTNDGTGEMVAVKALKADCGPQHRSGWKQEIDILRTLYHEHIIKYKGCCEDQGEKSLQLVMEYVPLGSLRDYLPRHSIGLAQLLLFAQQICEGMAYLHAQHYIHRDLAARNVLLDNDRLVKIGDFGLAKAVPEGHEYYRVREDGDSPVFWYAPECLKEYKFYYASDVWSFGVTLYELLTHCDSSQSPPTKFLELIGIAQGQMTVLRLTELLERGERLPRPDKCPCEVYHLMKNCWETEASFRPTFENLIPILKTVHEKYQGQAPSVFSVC
test.method.notes: Inhibition of TYK2 JH2 domain in IFNalpha/IL23-stimulated human Kit225 cells by luciferase reporter assay
pIC50: −log10 of the molar value.
endpoint: pIC50

smiles.notation: CNc1cc(Nc2cccn(-c3ccc(C#N)cc3)c2=O)nn2c(C(=O)NC3CC3)cnc12
endpoint: pIC50
assay.value: 7.05

smiles.notation: CNc1cc(Nc2cccn(-c3cccc(F)n3)c2=O)nn2c(C(=O)NC3CC3)cnc12
endpoint: pIC50
assay.value: 7.15

smiles.notation: CNc1cc(Nc2cccn(-c3ccc(F)cn3)c2=O)nn2c(C(=O)NC3CC3)cnc12
endpoint: pIC50
assay.value: 7.00

smiles.notation: CNc1cc(Nc2cccn(-c3ccc(C(C)(C)O)cc3)c2=O)nn2c(C(=O)NC3CC3)cnc12
endpoint: pIC50
assay.value: 6.95

smiles.notation: CNc1cc(Nc2cccn(-c3cccc(F)n3)c2=O)nn2c(C(=O)N[C@@H]3C[C@@H]3F)cnc12
endpoint: pIC50
assay.value: 7.92

smiles.notation: CNc1cc(Nc2cccn(-c3ccc(F)cn3)c2=O)nn2c(C(=O)N[C@@H]3C[C@@H]3F)cnc12
endpoint: pIC50
assay.value: 7.59

smiles.notation: CNc1cc(Nc2cccn(-c3ncccc3F)c2=O)nn2c(C(=O)NC3CC3)cnc12
endpoint: pIC50
assay.value: 7.21

smiles.notation: CNc1cc(Nc2cccn(C3CC3)c2=O)nn2c(C(=O)NC3CC3)cnc12
endpoint: pIC50
assay.value: 6.88

smiles.notation: CNc1cc(Nc2cccn(-c3ccccn3)c2=O)nn2c(C(=O)NC(C)C)cnc12
endpoint: pIC50
assay.value: 6.82

###

test.method.notes: AUC (0 to 24 hrs) in rat at 10 mg/kg, po
Assay type: ADME, organism-based
Set-up: time < 24 hr, dose 10 mg/kg, route oral
measurement.parameters: in vivo

smiles.notation: CNc1cc(Nc2cccn(-c3ccccn3)c2=O)nn2c(C(=O)N[C@@H]3C[C@@H]3F)cnc12
output.unit: µM·h
AUC(0-t) at 24 h: 57

###

test.method.notes: Oral bioavailability in cynomolgus monkey at 10 mg/kg
Format: ADME, organism-based, Macaca fascicularis
measurement.parameters: in vivo

smiles.notation: CNc1cc(Nc2cccn(-c3ccccn3)c2=O)nn2c(C(=O)N[C@@H]3C[C@@H]3F)cnc12
bioavailability / %: 46

###

test.method.notes: Cmax in rat at 10 mg/kg, po
Assay type: ADME, organism-based
Parameters: dose 10 mg/kg, route oral
measurement.parameters: in vivo

smiles.notation: CNc1cc(Nc2cccn(-c3ccccn3)c2=O)nn2c(C(=O)N[C@@H]3C[C@@H]3F)cnc12
Cmax (µM): 9.4

###

tested.target: Non-receptor tyrosine-protein kinase TYK2 (Homo sapiens)
test.method.notes: Inhibition of TYK2 JH2 domain in human whole blood assessed as decrease in IFNalpha/IL2-induced STAT phosphorylation preincubated for 1 hr followed by IFNalpha/IL2 stimulation and measured after 15 mins by fluorescence assay
Type: tissue-based
pIC50: −log10 of the molar value.
This listing pairs compounds with measured pIC50.
endpoint: pIC50

smiles.notation: CNc1cc(Nc2cccn(-c3cccc(F)n3)c2=O)nn2c(C(=O)NC3CC3)cnc12
tested.target: Non-receptor tyrosine-protein kinase TYK2 (Homo sapiens)
endpoint: pIC50
assay.value: 6.43
--
smiles.notation: CNc1cc(Nc2cccn(-c3cc(C)n(C)n3)c2=O)nn2c(C(=O)NC3CC3)cnc12
tested.target: Non-receptor tyrosine-protein kinase TYK2 (Homo sapiens)
endpoint: pIC50
assay.value: 6.47
--
smiles.notation: CNc1cc(Nc2cccn(-c3ccncc3)c2=O)nn2c(C(=O)NC3CC3)cnc12
tested.target: Non-receptor tyrosine-protein kinase TYK2 (Homo sapiens)
endpoint: pIC50
assay.value: 6.46
--
smiles.notation: CNc1cc(Nc2cccn(-c3ccc(F)cn3)c2=O)nn2c(C(=O)N[C@@H]3C[C@@H]3F)cnc12
tested.target: Non-receptor tyrosine-protein kinase TYK2 (Homo sapiens)
endpoint: pIC50
assay.value: 7.07
--
smiles.notation: CNc1cc(Nc2cccn(-c3cc(C)n(C)n3)c2=O)nn2c(C(=O)N[C@@H]3C[C@@H]3F)cnc12
tested.target: Non-receptor tyrosine-protein kinase TYK2 (Homo sapiens)
endpoint: pIC50
assay.value: 7.05

###

test.method.notes: AUC (0 to 24 hrs) in mouse at 10 mg/kg, po
Assay type: ADME, organism-based
Parameters: time < 24 hr, dose 10 mg/kg, route oral
measurement.parameters: in vivo
endpoint: AUC(0-t) at 24 h (µM·h)

smiles.notation: CNc1cc(Nc2cccn(-c3ccccn3)c2=O)nn2c(C(=O)N[C@@H]3C[C@@H]3F)cnc12
output.unit: µM·h
assay.value: 19

###

tested.target: Non-receptor tyrosine-protein kinase TYK2 (Homo sapiens)
test.method.notes: Inhibition of fluorescein-labeled kinase tracer binding to His-TVMV-fused TYK2 JH2 domain (575 to 869 residues) (unknown origin) measured after 90 mins by HTRF assay
This listing pairs compounds with measured Ki.
endpoint: Ki (nM)

smiles.notation: CNc1cc(Nc2cccn(-c3ccccn3)c2=O)nn2c(C(=O)NCC(C)(C)CO)cnc12
output.unit: nM
assay.value: 0.29
//
smiles.notation: CNc1cc(Nc2cccn(-c3cc(C)n(C)n3)c2=O)nn2c(C(=O)N[C@@H]3C[C@@H]3F)cnc12
output.unit: nM
assay.value: 0.015
//
smiles.notation: CNc1cc(Nc2cccn(-c3ccccn3)c2=O)nn2c(C(=O)NC3CCC3)cnc12
output.unit: nM
assay.value: 0.26
//
smiles.notation: CNc1cc(Nc2cccn(-c3ccncc3)c2=O)nn2c(C(=O)NC3CC3)cnc12
output.unit: nM
assay.value: 0.29
//
smiles.notation: CNc1cc(Nc2cccn(-c3ccccn3)c2=O)nn2c(C(=O)NC3CC3)cnc12
output.unit: nM
assay.value: 0.34
//
smiles.notation: CNc1cc(Nc2cccn(-c3ccc(C)nn3)c2=O)nn2c(C(=O)NC3CC3)cnc12
output.unit: nM
assay.value: 0.091
//
smiles.notation: CNc1cc(Nc2cccn(C3CC3)c2=O)nn2c(C(=O)NC3CC3)cnc12
output.unit: nM
assay.value: 0.33
//
smiles.notation: CNc1cc(Nc2cccn(-c3ccc(C)nn3)c2=O)nn2c(C(=O)N[C@@H]3C[C@@H]3F)cnc12
output.unit: nM
assay.value: 0.018
//
smiles.notation: CNc1cc(Nc2cccn(-c3ccccn3)c2=O)nn2c(C(=O)NC(C)C)cnc12
output.unit: nM
assay.value: 0.13
//
smiles.notation: CNc1cc(Nc2cccn(C)c2=O)nn2c(C(=O)NC3CC3)cnc12
output.unit: nM
assay.value: 0.74
//
smiles.notation: CNc1cc(Nc2cccn(-c3cccc(F)n3)c2=O)nn2c(C(=O)NC3CC3)cnc12
output.unit: nM
assay.value: 0.22
//
smiles.notation: CNc1cc(Nc2cccn(-c3cc(C)n(C)n3)c2=O)nn2c(C(=O)NC3CC3)cnc12
output.unit: nM
assay.value: 0.48
//
smiles.notation: CNc1cc(Nc2cccn(-c3ccc(F)cn3)c2=O)nn2c(C(=O)N[C@@H]3C[C@@H]3F)cnc12
output.unit: nM
assay.value: 0.035
//
smiles.notation: CNc1cc(Nc2cccn(-c3ncccc3F)c2=O)nn2c(C(=O)NC3CC3)cnc12
output.unit: nM
assay.value: 0.12
//
smiles.notation: CNc1cc(Nc2cccn(-c3cccc(F)n3)c2=O)nn2c(C(=O)N[C@@H]3C[C@@H]3F)cnc12
output.unit: nM
assay.value: 0.024
//
smiles.notation: CNc1cc(Nc2cccn(-c3ncc(F)cn3)c2=O)nn2c(C(=O)NC3CC3)cnc12
output.unit: nM
assay.value: 0.38
//
smiles.notation: CNc1cc(Nc2cccn(-c3ccc(C(C)(C)O)cc3)c2=O)nn2c(C(=O)NC3CC3)cnc12
output.unit: nM
assay.value: 0.07
//
smiles.notation: CNc1cc(Nc2cccn(-c3ccc(C#N)cc3)c2=O)nn2c(C(=O)NC3CC3)cnc12
output.unit: nM
assay.value: 0.2
//
smiles.notation: CNc1cc(Nc2cccn(-c3ccc(F)cn3)c2=O)nn2c(C(=O)NC3CC3)cnc12
output.unit: nM
assay.value: 0.15

###

test.method.notes: Cmax in cynomolgus monkey at 10 mg/kg, po
Type: ADME, organism-based, Macaca fascicularis
Parameters: dose 10 mg/kg, route oral
measurement.parameters: in vivo

smiles.notation: CNc1cc(Nc2cccn(-c3ccccn3)c2=O)nn2c(C(=O)N[C@@H]3C[C@@H]3F)cnc12
Cmax / nM: 1800

###

test.method.notes: Clearance in rat at 10 mg/kg, po
Assay type: ADME, organism-based
measurement.parameters: in vivo
endpoint: CL/F (mL/min/kg)

smiles.notation: CNc1cc(Nc2cccn(-c3ccccn3)c2=O)nn2c(C(=O)N[C@@H]3C[C@@H]3F)cnc12
endpoint: CL/F
assay.value: 7.8
